Kindly supply the reported Emax values for the records listed here.
# STUDY_SYSTEM: MOR (Mus musculus)
# Sequence (P42866 whole entry): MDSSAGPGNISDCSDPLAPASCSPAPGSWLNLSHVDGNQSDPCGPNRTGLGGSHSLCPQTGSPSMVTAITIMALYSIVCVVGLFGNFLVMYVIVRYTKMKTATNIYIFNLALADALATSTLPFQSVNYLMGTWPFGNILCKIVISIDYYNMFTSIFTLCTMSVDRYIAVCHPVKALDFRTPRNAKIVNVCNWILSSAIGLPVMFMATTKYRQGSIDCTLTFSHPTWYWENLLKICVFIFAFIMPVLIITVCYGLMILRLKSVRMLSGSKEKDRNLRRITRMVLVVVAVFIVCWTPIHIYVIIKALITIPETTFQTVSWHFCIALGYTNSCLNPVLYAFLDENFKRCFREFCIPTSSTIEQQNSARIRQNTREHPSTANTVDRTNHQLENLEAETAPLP
# TEST_SUMMARY: biochemical
# RUN_PARAMETERS: read-out: MOR [35S]GTPγS Binding %Emax of DAMGO

Worked cases, Emax given:
| SMILES_STR | STUDY_SYSTEM | Emax |
| --- | --- | --- |
| O=C(N[C@H]1CC[C@@]2(O)[C@H]3Cc4ccc(O)c5c4[C@@]2(CCN3CC2CC2)[C@H]1O5)c1nc(Cl)c2ccccc2c1O | MOR (Mus musculus) | 19.8% |
| Cc1nc(C(=O)N[C@H]2CC[C@@]3(O)[C@H]4Cc5ccc(O)c6c5[C@@]3(CCN4CC3CC3)[C@H]2O6)cc2ccccc12 | MOR (Mus musculus) | 22.2% |
| O=C(N[C@H]1CC[C@@]2(O)[C@H]3Cc4ccc(O)c5c4[C@@]2(CCN3CC2CC2)[C@H]1O5)c1ncc2ccccc2n1 | MOR (Mus musculus) | 21.6% |
| CN1Cc2ccccc2C[C@H]1C(=O)N[C@H]1CC[C@@]2(O)[C@H]3Cc4ccc(O)c5c4[C@@]2(CCN3CC2CC2)[C@H]1O5 | MOR (Mus musculus) | 24.8% |
| O=C(N[C@H]1CC[C@@]2(O)[C@H]3Cc4ccc(O)c5c4[C@@]2(CCN3CC2CC2)[C@H]1O5)c1ncc2ccccc2c1O | MOR (Mus musculus) | 20.5% |
| O=C(Cc1cc2ccccc2cn1)N[C@H]1CC[C@@]2(O)[C@H]3Cc4ccc(O)c5c4[C@@]2(CCN3CC2CC2)[C@H]1O5 | MOR (Mus musculus) | 18.6% |
| O=C(CCc1cc2ccccc2cn1)N[C@H]1CC[C@@]2(O)[C@H]3Cc4ccc(O)c5c4[C@@]2(CCN3CC2CC2)[C@H]1O5 | MOR (Mus musculus) | 27.4% |
| O=C(CNC(=O)c1cc2ccccc2cn1)N[C@H]1CC[C@@]2(O)[C@H]3Cc4ccc(O)c5c4[C@@]2(CCN3CC2CC2)[C@H]1O5 | MOR (Mus musculus) | < 15% |

Query: Supply recorded Emax for N#Cc1nc(C(=O)N[C@H]2CC[C@@]3(O)[C@H]4Cc5ccc(O)c6c5[C@@]3(CCN4CC3CC3)[C@H]2O6)cc2ccccc12 here.
Response: 37.5%
